- TESTED_TARGET: human serum albumin (human) (UniProt P02768)
- Sequence (P02768 25-609 limits assumed): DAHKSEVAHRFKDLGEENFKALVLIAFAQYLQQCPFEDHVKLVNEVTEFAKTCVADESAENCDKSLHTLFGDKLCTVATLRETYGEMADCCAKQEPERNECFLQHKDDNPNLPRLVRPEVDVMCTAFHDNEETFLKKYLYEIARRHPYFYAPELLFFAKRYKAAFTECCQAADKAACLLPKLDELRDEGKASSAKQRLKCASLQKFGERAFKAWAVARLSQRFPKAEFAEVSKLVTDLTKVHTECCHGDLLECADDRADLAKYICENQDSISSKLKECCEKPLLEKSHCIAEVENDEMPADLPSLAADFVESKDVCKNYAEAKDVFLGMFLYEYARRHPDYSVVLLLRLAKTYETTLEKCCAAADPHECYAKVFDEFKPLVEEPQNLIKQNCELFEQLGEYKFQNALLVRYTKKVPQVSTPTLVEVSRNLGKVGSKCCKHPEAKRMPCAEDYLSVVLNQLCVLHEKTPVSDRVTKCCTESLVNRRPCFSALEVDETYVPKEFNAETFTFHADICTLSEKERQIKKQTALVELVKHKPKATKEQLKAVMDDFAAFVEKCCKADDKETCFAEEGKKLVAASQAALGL
- ASSAY_DETAILS: SPR, HSA immobilised on the chip, pH 7.3, 1:1 Langmuir fit
OBSERVABLE: log10 Kd (log10 of the value in nM)
Hi team, quick reminder: these entries are log10 of Kd (nM).

Here are 5 binders together with their reported answers.
BINDER	OBSERVABLE	MEASURED_RESULT
LAEAKVLALKELDKYGISNYYKNLINNAKTIEGVEALKEAIVAA (designed binder, part only; not given: ED-B binding domain, linkers, tags, part only) [215674]	log10 Kd	0.70
LAEAKVLAIKELDKAGISDYYFNLINNAKTVEGVKALKAQIVAA (designed binder, part only; not given: ED-B binding domain, linkers, tags, part only) [215035]	log10 Kd	0.38
LAEAKVLALKELDKYGISNYYKNLIDKAKTIEGVEALKDAILAA (designed binder, part only; not given: ED-B binding domain, linkers, tags, part only) [215680]	log10 Kd	-0.10
LAEAKVLALKELDKYGISNYYKNLINNAKTIEGVKALKAQILAA (designed binder, part only; not given: ED-B binding domain, linkers, tags, part only) [215665]	log10 Kd	0.48
LAEAKVLALKELDKYGISNYYKNLINNAKTIEGVEALKDAILAA (designed binder, part only; not given: ED-B binding domain, linkers, tags, part only) [215675]	log10 Kd	0.04

INPUT: Field request: log10 Kd | item: LAEAKVLALKELDKYGISNYYKNLINNAKTVEGVKALKEAIVAA (designed binder, part only; not given: ED-B binding domain, linkers, tags, part only) [217806]
OUTPUT: 0.18

INPUT: May I ask what log10 Kd has been recorded for LAEAKVLAIKELDKAGISNYYFNLINNAKTVEGVKDLKAQIVAA (designed binder, part only; not given: ED-B binding domain, linkers, tags, part only) [215052] ?
OUTPUT: 0.90
